test system: H3255; test: relative viability (nuclei count vs DMSO), 5 days (fraction); higher = more cells survive; details: first compound 0.4 µM
relative viability for assorted compounds
Respond using a number only.

Use these answered entries as a reference point.
Clc1ccc(Nc2nnc(Cc3ccncc3)c3ccccc23)cc1 [Vatalanib] + Cc1nc(Nc2ncc(C(=O)Nc3c(C)cccc3Cl)s2)cc(N2CCN(CCO)CC2)n1 [Dasatinib] (partner 0.075 µM) | 0.311
COc1cc(N2CCC(C(N)=O)CC2)ccc1Nc1nc(N)c(Cl)c(Nc2ccccc2S(=O)(=O)C(C)C)n1 [HG-5-88-01] + CS(=O)(=O)CCNCc1ccc(-c2ccc3ncnc(Nc4ccc(OCc5cccc(F)c5)c(Cl)c4)c3c2)o1 [Lapatinib] (partner 2 µM) | 0.244
COc1cc(N2CCC(C(N)=O)CC2)ccc1Nc1nc(N)c(Cl)c(Nc2ccccc2S(=O)(=O)C(C)C)n1 [HG-5-88-01] + Nc1nc2[nH]cc(CCc3ccc(C(=O)N[C@@H](CCC(=O)O)C(=O)O)cc3)c2c(=O)[nH]1 [Pemetrexed] (partner 0.2 µM) | 0.54

Prompt line: Using the record for COc1cc(N2CCC(C(N)=O)CC2)ccc1Nc1nc(N)c(Cl)c(Nc2ccccc2S(=O)(=O)C(C)C)n1 [HG-5-88-01] + C[C@]1(O)C[C@@H](c2nc(-c3ccc4ccc(-c5ccccc5)nc4c3)c3c(N)nccn32)C1 [Linsitinib] (partner 1 µM) , report its relative viability.
Response line: 0.939

Prompt line: Using the record for C[C@@H]1CN(CC(=O)Nc2ccc3c(c2)Cc2cccc(-c4cc(=O)cc(N5CCOCC5)o4)c2S3)C[C@H](C)O1 + N=C(N)NC(=N)NCCc1ccccc1 [Phenformin] (partner 250 µM) , report its relative viability.
Response line: 0.319

Prompt line: Using the record for C[C@@H]1CN(CC(=O)Nc2ccc3c(c2)Cc2cccc(-c4cc(=O)cc(N5CCOCC5)o4)c2S3)C[C@H](C)O1 + CC(C)C[C@H](NC(=O)[C@H](Cc1ccccc1)NC(=O)c1cnccn1)B(O)O [Bortezomib] (partner 0.002 µM) , report its relative viability.
Response line: 0.534

Prompt line: Using the record for COc1cc(N2CCC(C(N)=O)CC2)ccc1Nc1nc(N)c(Cl)c(Nc2ccccc2S(=O)(=O)C(C)C)n1 [HG-5-88-01] + Cc1cc(Nc2cc(N3CCN(C)CC3)nc(Sc3ccc(NC(=O)C4CC4)cc3)n2)n[nH]1 [Tozasertib] (partner 0.1 µM) , report its relative viability.
Response line: 0.616

Prompt line: Using the record for C[C@@H]1CN(CC(=O)Nc2ccc3c(c2)Cc2cccc(-c4cc(=O)cc(N5CCOCC5)o4)c2S3)C[C@H](C)O1 + COc1cccc2cc(-c3nc([C@H]4CC[C@H](C(=O)O)CC4)n4ncnc(N)c34)[nH]c12 [OSI-027] (partner 0.5 µM) , report its relative viability.
Response line: 0.48

Prompt line: Using the record for Clc1ccc(Nc2nnc(Cc3ccncc3)c3ccccc23)cc1 [Vatalanib] + CC(=O)c1c(C)c2cnc(Nc3ccc(N4CCNCC4)cn3)nc2n(C2CCCC2)c1=O [Palbociclib] (partner 0.5 µM) , report its relative viability.
Response line: 0.325

---

tested on: NCI-H647; assay: relative viability (nuclei count vs DMSO), 5 days (fraction); higher = more cells survive; settings: first compound 4 µM
relative viability for assorted molecules
Respond using a number only.

C[C@@H]1CN(CC(=O)Nc2ccc3c(c2)Cc2cccc(-c4cc(=O)cc(N5CCOCC5)o4)c2S3)C[C@H](C)O1 + Nc1nc2[nH]cc(CCc3ccc(C(=O)N[C@@H](CCC(=O)O)C(=O)O)cc3)c2c(=O)[nH]1 [Pemetrexed] (partner 0.2 µM) | 0.155
COc1cc(N2CCC(C(N)=O)CC2)ccc1Nc1nc(N)c(Cl)c(Nc2ccccc2S(=O)(=O)C(C)C)n1 [HG-5-88-01] + CC(=O)c1c(C)c2cnc(Nc3ccc(N4CCNCC4)cn3)nc2n(C2CCCC2)c1=O [Palbociclib] (partner 0.5 µM) | 0.494
C[C@@H]1CN(CC(=O)Nc2ccc3c(c2)Cc2cccc(-c4cc(=O)cc(N5CCOCC5)o4)c2S3)C[C@H](C)O1 + CC(=O)c1c(C)c2cnc(Nc3ccc(N4CCNCC4)cn3)nc2n(C2CCCC2)c1=O [Palbociclib] (partner 0.5 µM) | 0.273

Prompt line: Using the record for COc1cc(N2CCC(C(N)=O)CC2)ccc1Nc1nc(N)c(Cl)c(Nc2ccccc2S(=O)(=O)C(C)C)n1 [HG-5-88-01] + Nc1ncn([C@H]2C[C@H](O)[C@@H](CO)O2)c(=O)n1 [Decitabine] (partner 2 µM) , report its relative viability.
Response line: 0.679

---

test system: NCI-H596; experiment: relative viability (nuclei count vs DMSO), 5 days (fraction); higher = more cells survive; conditions: first compound 1.265 µM
recorded_metric: relative viability
Respond using a number only.

Clc1ccc(Nc2nnc(Cc3ccncc3)c3ccccc23)cc1 [Vatalanib] + CC1(C)CCC(c2ccc(Cl)cc2)=C(CN2CCN(c3ccc(C(=O)NS(=O)(=O)c4ccc(N[C@H](CCN5CCOCC5)CSc5ccccc5)c(S(=O)(=O)C(F)(F)F)c4)cc3)CC2)C1 [Navitoclax] (partner 0.5 µM) | 0.767

Prompt line: Using the record for COc1cc(N2CCC(C(N)=O)CC2)ccc1Nc1nc(N)c(Cl)c(Nc2ccccc2S(=O)(=O)C(C)C)n1 [HG-5-88-01] + CC(C)C[C@H](NC(=O)[C@H](Cc1ccccc1)NC(=O)c1cnccn1)B(O)O [Bortezomib] (partner 0.002 µM) , report its relative viability.
Response line: 0.964

Prompt line: Using the record for COc1cc(N2CCC(C(N)=O)CC2)ccc1Nc1nc(N)c(Cl)c(Nc2ccccc2S(=O)(=O)C(C)C)n1 [HG-5-88-01] + Cc1nc(NC(=O)N2CCC[C@H]2C(N)=O)sc1-c1ccnc(C(C)(C)C(F)(F)F)c1 [Alpelisib] (partner 2 µM) , report its relative viability.
Response line: 0.362

Prompt line: Using the record for Clc1ccc(Nc2nnc(Cc3ccncc3)c3ccccc23)cc1 [Vatalanib] + Nc1ncn([C@H]2C[C@H](O)[C@@H](CO)O2)c(=O)n1 [Decitabine] (partner 2 µM) , report its relative viability.
Response line: 1.01

Prompt line: Using the record for Clc1ccc(Nc2nnc(Cc3ccncc3)c3ccccc23)cc1 [Vatalanib] + O=C(CCCCCCC(=O)Nc1ccccc1)NO [Vorinostat] (partner 1 µM) , report its relative viability.
Response line: 0.583

---

relative viability for assorted compounds
tested on: UMC-11; experiment: relative viability (nuclei count vs DMSO), 5 days (fraction); higher = more cells survive; conditions: first compound 0.08 µM
Respond using a number only.

Use these answered entries as a reference point.
CCCCCCCCCCCC1=C(O)C(=O)C=C(O)C1=O [Embelin] + CS(=O)(=O)CCNCc1ccc(-c2ccc3ncnc(Nc4ccc(OCc5cccc(F)c5)c(Cl)c4)c3c2)o1 [Lapatinib] (partner 2 µM) | 1.12
CCCCCCCCCCCC1=C(O)C(=O)C=C(O)C1=O [Embelin] + O=C(CCCCCCC(=O)Nc1ccccc1)NO [Vorinostat] (partner 1 µM) | 0.39
CCCCCCCCCCCC1=C(O)C(=O)C=C(O)C1=O [Embelin] + Nc1ncn([C@H]2C[C@H](O)[C@@H](CO)O2)c(=O)n1 [Decitabine] (partner 2 µM) | 0.616

Prompt line: Enter reported relative viability observed with UMC-11 for CCCCCCCCCCCC1=C(O)C(=O)C=C(O)C1=O [Embelin] + CC(=O)Nc1cccc(-n2c(=O)n(C3CC3)c(=O)c3c(Nc4ccc(I)cc4F)n(C)c(=O)c(C)c32)c1 [Trametinib] (partner 0.02 µM)
Response line: 0.698

Prompt line: Enter reported relative viability observed with UMC-11 for CCCCCCCCCCCC1=C(O)C(=O)C=C(O)C1=O [Embelin] + O=C(c1cc(Cc2n[nH]c(=O)c3ccccc23)ccc1F)N1CCN(C(=O)C2CC2)CC1 [Olaparib] (partner 8 µM)
Response line: 0.338

Prompt line: Enter reported relative viability observed with UMC-11 for CCCCCCCCCCCC1=C(O)C(=O)C=C(O)C1=O [Embelin] + N=C(N)NC(=N)NCCc1ccccc1 [Phenformin] (partner 250 µM)
Response line: 0.33

Prompt line: Enter reported relative viability observed with UMC-11 for CCCCCCCCCCCC1=C(O)C(=O)C=C(O)C1=O [Embelin] + C[C@@H](Oc1cc(-c2cnn(C3CCNCC3)c2)cnc1N)c1c(Cl)ccc(F)c1Cl [Crizotinib] (partner 1 µM)
Response line: 0.639

Prompt line: Enter reported relative viability observed with UMC-11 for CCCCCCCCCCCC1=C(O)C(=O)C=C(O)C1=O [Embelin] + COc1cccc2cc(-c3nc([C@H]4CC[C@H](C(=O)O)CC4)n4ncnc(N)c34)[nH]c12 [OSI-027] (partner 0.5 µM)
Response line: 0.441

---

relative viability for assorted compounds
test system: NCI-H1755; experiment: relative viability (nuclei count vs DMSO), 5 days (fraction); higher = more cells survive; conditions: first compound 0.4 µM
Respond using a number only.

Use these answered entries as a reference point.
Clc1ccc(Nc2nnc(Cc3ccncc3)c3ccccc23)cc1 [Vatalanib] + COc1cc2c(Oc3ccc(NC(=O)C4(C(=O)Nc5ccc(F)cc5)CC4)cc3F)ccnc2cc1OCCCN1CCOCC1 [Foretinib] (partner 0.25 µM) | 0.954
Clc1ccc(Nc2nnc(Cc3ccncc3)c3ccccc23)cc1 [Vatalanib] + O=C(c1cc(Cc2n[nH]c(=O)c3ccccc23)ccc1F)N1CCN(C(=O)C2CC2)CC1 [Olaparib] (partner 8 µM) | 0.878

Prompt line: Using the record for Clc1ccc(Nc2nnc(Cc3ccncc3)c3ccccc23)cc1 [Vatalanib] + Nc1nc2[nH]cc(CCc3ccc(C(=O)N[C@@H](CCC(=O)O)C(=O)O)cc3)c2c(=O)[nH]1 [Pemetrexed] (partner 0.2 µM) , report its relative viability.
Response line: 0.461

Prompt line: Using the record for COc1cc(N2CCC(C(N)=O)CC2)ccc1Nc1nc(N)c(Cl)c(Nc2ccccc2S(=O)(=O)C(C)C)n1 [HG-5-88-01] + CCNC(=O)c1noc(-c2cc(C(C)C)c(O)cc2O)c1-c1ccc(CN2CCOCC2)cc1 [Luminespib] (partner 0.01 µM) , report its relative viability.
Response line: 0.427
